target-or-system: Muscarinic acetylcholine receptor M1 (Homo sapiens) (UniProt P11229)
Sequence (P11229 whole entry, looked up): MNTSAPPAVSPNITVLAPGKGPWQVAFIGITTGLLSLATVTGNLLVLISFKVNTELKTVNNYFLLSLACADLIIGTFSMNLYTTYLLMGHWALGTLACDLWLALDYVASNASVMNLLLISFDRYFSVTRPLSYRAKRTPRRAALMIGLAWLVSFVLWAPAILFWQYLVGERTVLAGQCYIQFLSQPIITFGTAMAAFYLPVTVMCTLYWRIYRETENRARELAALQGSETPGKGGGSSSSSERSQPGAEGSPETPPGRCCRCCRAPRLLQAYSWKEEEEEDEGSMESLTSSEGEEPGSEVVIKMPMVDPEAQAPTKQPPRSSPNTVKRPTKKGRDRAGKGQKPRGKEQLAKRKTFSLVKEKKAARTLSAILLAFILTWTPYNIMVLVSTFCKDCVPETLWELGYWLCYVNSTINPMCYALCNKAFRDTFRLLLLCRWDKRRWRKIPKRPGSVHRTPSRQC
test-method-notes: Cholinergic receptor muscarinic 1 (CHRM1) small molecule antagonists, cell-based qHTS assay (AID 1963588); further: nearly all actives have a fitted effect of over 40% in size
condition-parameters: CHRM1-CHO antagonist mode, calcium flux fluorescence; series mostly up to 61.5 µM
Records with an inconclusive call do not appear. Active and inactive are the calls of the source. The call rests on the fitted dose curve.
Parameter call: string, one of true (1) (active), false (0) (inactive)

Solved entries:
>>> label_value("CC1C2CC(CC2C2CCCC(O)C2)C1(C)C (centres undefined)")
"false (0)"
>>> label_value("Cc1cc([N+](=O)[O-])ccc1N")
"false (0)"

Please share the test call associated with CCCCCCCCS(=O)C(C)Cc1ccc2c(c1)OCO2 (centres undefined) .
false (0)

Similarly, C=CC(C)(CCC=C(C)C)OC(=O)CC(C)C (centres undefined) ?
false (0)

Similarly, `CCCCCCCOC(=O)c1ccc(O)cc1` ?
false (0)

Similarly, `CCCCN1C[C@H](O)[C@@H](O)[C@H](O)[C@H]1CO` ?
false (0)

====

target-or-system: 5-hydroxytryptamine receptor 2A (Homo sapiens) (UniProt P28223)
Sequence (P28223 whole entry, looked up): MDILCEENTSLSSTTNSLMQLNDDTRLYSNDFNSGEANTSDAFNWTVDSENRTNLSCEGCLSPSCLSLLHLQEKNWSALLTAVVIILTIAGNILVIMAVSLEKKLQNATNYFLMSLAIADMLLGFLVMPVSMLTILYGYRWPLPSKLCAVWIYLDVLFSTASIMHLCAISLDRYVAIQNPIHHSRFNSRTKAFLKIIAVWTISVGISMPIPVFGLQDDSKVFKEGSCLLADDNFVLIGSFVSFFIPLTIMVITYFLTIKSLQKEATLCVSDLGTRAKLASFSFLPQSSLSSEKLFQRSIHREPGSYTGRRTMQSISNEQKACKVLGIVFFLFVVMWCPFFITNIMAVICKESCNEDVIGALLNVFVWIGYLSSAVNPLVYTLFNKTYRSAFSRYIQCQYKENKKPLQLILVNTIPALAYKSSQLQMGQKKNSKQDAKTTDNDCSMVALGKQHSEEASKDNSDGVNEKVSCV
test-method-notes: 5-hydroxytryptamine receptor 2A (HTR2A) small molecule antagonists, cell-based qHTS assay (AID 1963586); further: nearly all actives have a fitted effect of over 45% in size
condition-parameters: HTR2A-CHO cells, DOI-induced calcium flux, fluorescence; series mostly up to 61.5 µM
Records with an inconclusive call do not appear. Calls of active or inactive are those of the source. The call rests on the fitted dose curve.
Parameter call: string, one of active, inactive

Solved entries:
>>> label_value("CNCc1cc(F)ccc1Oc1ccc(Cl)c(Cl)c1")
"active"
>>> label_value("Nc1ccc(Oc2ccc(N)c(N)c2)cc1")
"inactive"
>>> label_value("C=C(C)CS(=O)(=O)O")
"inactive"

Please share the test call associated with `c1ccc(B(c2ccccc2)c2ccccc2)cc1` .
inactive

Similarly, `CO/N=C(/C(=O)N[C@@H]1C(=O)N2C(C(=O)OCOC(=O)C(C)(C)C)=C(C)CS[C@H]12)c1csc(N)n1` ?
inactive

Similarly, `[Cl][Au]([Cl])[Cl]` ?
inactive

Similarly, `O=C1C=CC(=O)N1` ?
inactive

Similarly, C[C@@H](c1ncncc1F)C(O)(Cn1cncn1)c1ccc(F)cc1F (stereo partly specified) ?
inactive

Similarly, `CC(=O)Nc1ccc(S(=O)(=O)Nc2ccc([N+](=O)[O-])cc2)cc1` ?
inactive

Similarly, `Cc1ccc(C(C)(C)C)c(O)c1` ?
inactive

Similarly, `CC1(C)C(=O)N(Br)C(=O)N1Br` ?
inactive

Similarly, `CC(C)(C)CC(C)(C)N` ?
inactive

Similarly, OC12N=C(c3ccccc3)SC1Cc1cc(Cl)ccc12 (stereo unspecified) ?
inactive

Similarly, `CC(C)COC(=O)CCCCC(=O)OCC(C)C` ?
inactive

Similarly, CCCCCCCCCCC1CO1 (stereo unspecified) ?
inactive

Similarly, `c1ccc2sc(SN(C3CCCCC3)C3CCCCC3)nc2c1` ?
inactive

Similarly, `CN(C)CCOc1ccccc1Cc1ccccc1` ?
active

Similarly, COc1ccccc1OCC1CNC(=O)O1 (stereo unspecified) ?
inactive

Similarly, C=C1CCC2CC1C2(C)C (stereo unspecified) ?
inactive

Similarly, `N/C(=N\N=C\c1ccc(Cl)cc1)N/N=C/c1ccc(Cl)cc1` ?
inactive

Similarly, `CCCCCCCCCCl` ?
inactive
